Entries and their solubility change mitosis (log2) values follow.
- Test system: HeLa Kyoto;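 also: synchronized HeLa Kyoto cells (double thymidine block for G1/S, nocodazole release for mitosis), protein amounts in NP-40 versus SDS lysates quantified by mass spectrometry, three biological replicates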
- EXPERIMENTAL PROTOCOL: solubility change mitosis vs G1/S (difference of NP-40 vs SDS log2 ratios) (log2 ratio difference); higher = more soluble in mitosis

RESIDUE STRING	solubility change mitosis (log2)
MQRALPGARQHLGAILASASVVVKALCAAVLFLYLLSFAVDTGCLAVTPGYLFPPNFWIWTLATHGLMEQHVWDVAISLTTVVVAGRLLEPLWGALELLIFFSVVNVSVGLLGAFAYLLTYMASFNLVYLFTVRIHGALGFLGGVLVALKQTMGDCVVLRVPQVRVSVMPMLLLALLLLLRLATLLQSPALASYGFGLLSSWVYLRFYQRHSRGRGDMADHFAFATFFPEILQPVVGLLANLVHSLLVKVKICQKTVKRYDVGAPSSITISLPGTDPQDAERRRQLALKALNERLKRVEDQSIWPSMDDDEEESGAKVDSPLPSDKAPTPPGKGAAPESSLITFEAAPPTL [TMEM115]	0.0464
MIEDTMTLLSLLGRIMRYFLLRPETLFLLCISLALWSYFFHTDEVKTIVKSSRDAVKMVKGKVAEIMQNDRLGGLDVLEAEFSKTWEFKNHNVAVYSIQGRRDHMEDRFEVLTDLANKTHPSIFGIFDGHGGETAAEYVKSRLPEALKQHLQDYEKDKENSVLSYQTILEQQILSIDREMLEKLTVSYDEAGTTCLIALLSDKDLTVANVGDSRGVLCDKDGNAIPLSHDHKPYQLKERKRIKRAGGFISFNGSWRVQGILAMSRSLGDYPLKNLNVVIPDPDILTFDLDKLQPEFMILASDGLWDAFSNEEAVRFIKERLDEPHFGAKSIVLQSFYRGCPDNITVMVVKFRNSSKTEEQ [PPM1L]	-0.142
MTMDKSELVQKAKLAEQAERYDDMAAAMKAVTEQGHELSNEERNLLSVAYKNVVGARRSSWRVISSIEQKTERNEKKQQMGKEYREKIEAELQDICNDVLELLDKYLIPNATQPESKVFYLKMKGDYFRYLSEVASGDNKQTTVSNSQQAYQEAFEISKKEMQPTHPIRLGLALNFSVFYYEILNSPEKACSLAKTAFDEAIAELDTLNEESYKDSTLIMQLLRDNLTLWTSENQGDEGDAGEGEN [YWHAB]	0.402
MGSRASTLLRDEELEEIKKETGFSHSQITRLYSRFTSLDKGENGTLSREDFQRIPELAINPLGDRIINAFFPEGEDQVNFRGFMRTLAHFRPIEDNEKSKDVNGPEPLNSRSNKLHFAFRLYDLDKDEKISRDELLQVLRMMVGVNISDEQLGSIADRTIQEADQDGDSAISFTEFVKVLEKVDVEQKMSIRFLH [CHP1]	-0.016
MKSNPAIQAAIDLTAGAAGGTACVLTGQPFDTMKVKMQTFPDLYRGLTDCCLKTYSQVGFRGFYKGTSPALIANIAENSVLFMCYGFCQQVVRKVAGLDKQAKLSDLQNAAAGSFASAFAALVLCPTELVKCRLQTMYEMETSGKIAKSQNTVWSVIKSILRKDGPLGFYHGLSSTLLREVPGYFFFFGGYELSRSFFASGRSKDELGPVPLMLSGGVGGICLWLAVYPVDCIKSRIQVLSMSGKQAGFIRTFINVVKNEGITALYSGLKPTMIRAFPANGALFLAYEYSRKLMMNQLEAY [SLC25A15]	-0.0497

// data source = the supplement of paper PMC5998384
